Hello, the source for this data is paper PMC9352680, in case you need it.

Target: T1, PUF4 RNA-binding domain (Saccharomyces cerevisiae, UniProt P25339 537-888)
T1 sequence: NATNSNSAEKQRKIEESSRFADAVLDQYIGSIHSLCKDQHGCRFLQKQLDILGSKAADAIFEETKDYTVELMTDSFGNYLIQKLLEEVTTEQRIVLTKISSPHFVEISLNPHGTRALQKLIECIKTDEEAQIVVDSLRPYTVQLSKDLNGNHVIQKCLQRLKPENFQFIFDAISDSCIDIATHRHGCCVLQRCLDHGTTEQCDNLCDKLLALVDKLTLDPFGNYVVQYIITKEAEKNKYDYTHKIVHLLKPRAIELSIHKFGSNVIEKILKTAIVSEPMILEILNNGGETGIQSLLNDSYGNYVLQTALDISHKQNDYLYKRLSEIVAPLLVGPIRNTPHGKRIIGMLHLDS
Assay: Mg; RNA-MaP; 20 mM Na-HEPES pH 7.4, 30 mM KOAc, 0.75 mM MgCl2, 0.1% Tween-20, 5% glycerol, 0.1 mg/mL BSA, 2 mM DTT; 25 C; 0.0125-409.6 nM protein
Details: tags: N-His6-TEV cleaved; C-SNAP kept, Cy3B-labelled; label: tethered on chip by stalled RNA polymerase
Documented pKd across a set of binders
Lab note — pKd values are minus log10 of concentrations in M.

Consider the worked cases shown below.
1. Id_ii_S2_P3E.2_K3.1_C3.2_H3.1_A3.1_F3.1_T3.2_[T9G]_[A10T] (ssRNA) RNA: UUUGAUUAAUAUGAUAUCGUUCUUUCUCUUGUAUAUAGUUUCUUUCUCGAUAUCAUAUUAAUCUUU; 8.36
2. Ie_S2_P4E.1_K4.1_C4.1_H4.1_[+2C]_A4.1_F4.1_T4.1 (ssRNA) RNA: UUUGAUUAAUAUGAUAUCGUUCUUUCUUGCUAUAUUAUUCUUUCUCGAUAUCAUAUUAAUCUUU; 7.09

Now for another entry.
What pKd value was documented for this binder, Id_ii_S4_P3E.2_K3.1_C3.2_[T-1G]_H3.1_A3.1_F3.1_T3.2 (ssRNA) RNA: UUUGACAACUGAUCGUUCUUUCUCGUGUAUAUAUAUUCUUUCUCGAUCAGUUGUCUUU ?
8.85
